Tested on: mice bearing PSMA-expressing LNCAP cancer xenografts
Assay: Biodistribution of 68Ga-labeled compounds
Assay type: in vivo
Conditions: 3 h post-injection
parameter: Bone uptake (% ID/g)
Give the number; % ID/g is assumed, so skip it.

Fill in reported Bone uptake for this entry: Nc1ccc(CCCC(=O)NCC(=O)N[C@@H](CCCCNC(=O)CN2CCN(CC(=O)[O-])CCN(CC(=O)[O-])CCN(CC(=O)[O-])CC2)C(=O)NC[C@H]2CC[C@H](C(=O)N[C@@H](Cc3ccc4ccccc4c3)C(=O)NCCCC[C@H](NC(=O)N[C@@H](CCC(=O)O)C(=O)O)C(=O)O)CC2)cc1.[68Ga+3] [^68Ga-HTK03087]
0.03

Answer with reported Bone uptake of Cc1ccc(CCCC(=O)NCC(=O)N[C@@H](CCCCNC(=O)CN2CCN(CC(=O)[O-])CCN(CC(=O)[O-])CCN(CC(=O)[O-])CC2)C(=O)NC[C@H]2CC[C@H](C(=O)N[C@@H](Cc3ccc4ccccc4c3)C(=O)NCCCC[C@H](NC(=O)N[C@@H](CCC(=O)O)C(=O)O)C(=O)O)CC2)cc1.[68Ga+3] [^68Ga-HTK03090]
0.64

Item O=C([O-])CN1CCN(CC(=O)[O-])CCN(CC(=O)NCCCC[C@H](NC(=O)CNC(=O)CCCc2ccc(F)cc2)C(=O)NC[C@H]2CC[C@H](C(=O)N[C@@H](Cc3ccc4ccccc4c3)C(=O)NCCCC[C@H](NC(=O)N[C@@H](CCC(=O)O)C(=O)O)C(=O)O)CC2)CCN(CC(=O)[O-])CC1.[68Ga+3] [^68Ga-HTK03085] : provide Bone uptake
0.13
